- Test system: P388 leukemia ip, CD2F1 mice, survival T/C
- test description: NCI In Vivo Anticancer Drug Screen. Data for tumor model P388 Leukemia (intraperitoneal) in CD2F1 (CDF1) mice
- run parameters: endpoint: median survival time; dose: 25.0 mg/kg/injection; schedule: Q01DX009 (ip); vehicle: saline; higher = longer survival
Inconclusive results and toxic doses are left out.
Form field: T/C (one value per entry).

Reference set, count: 3
molecule: CCCNC(=S)N/N=C(/C)CC/C(C)=N/NC(=S)NCCC
reported measurement: 99 % of control

molecule: Oc1ccc2c(c1)[C@]13CCCCC1[C@H](C2)N(Cc1ccoc1)CC3 (stereo partly specified)
reported measurement: 97 % of control

molecule: CCN(CC)CCOC(=O)c1ccc(NC(=O)Nc2ccc(C(=O)OCCN(CC)CC)cc2)cc1
reported measurement: 102 % of control

The measured T/C associated with CC(=O)Nc1c(Cl)cc2c(c1Cl)Cc1cc(N(CCO)CCO)ccc1-2 reads 93 % of control

The measured T/C associated with C[N+](C)(C)CCCO reads 94 % of control

====

Form field: T/C (one value per entry).
- Tested on: P388 leukemia ip, CD2F1 mice, survival T/C
- test description: NCI In Vivo Anticancer Drug Screen. Data for tumor model P388 Leukemia (intraperitoneal) in CD2F1 (CDF1) mice
- run parameters: endpoint: median survival time; dose: 100.0 mg/kg/injection; schedule: Q04DX002 (ip); vehicle: Klucel (hydroxypropylcellulose) (HPC); higher = longer survival
Toxic doses and inconclusive results are not listed.

Reference set, count: 3
compound: COc1ccc(CC(CO)NC(=O)c2ccccc2)cc1 (centres undefined)
measurement target: P388 leukemia ip, CD2F1 mice, survival T/C
T/C: 101 % of control
//
compound: Cc1cc(C(=O)NC(C)c2ccc(S(=O)(=O)NC(=O)NC3CCCCC3)cc2)no1 (centres undefined)
measurement target: P388 leukemia ip, CD2F1 mice, survival T/C
T/C: 100 % of control
//
compound: COC(C)(C)c1cc(C(C)(C)C)cc2c1SOC2(C)C
measurement target: P388 leukemia ip, CD2F1 mice, survival T/C
T/C: 94 % of control

Entry CC(/C=C/c1ccccc1)=N\NC(=S)Nc1ccc(Br)cc1 , P388 leukemia ip, CD2F1 mice, survival T/C data, T/C value: 97 % of control

Entry O=S(=O)(Nc1nccs1)c1ccc(NCc2c3ccccc3nc3ccccc23)cc1 , P388 leukemia ip, CD2F1 mice, survival T/C data, T/C value: 101 % of control

Entry CCN=c1c([N+](=O)[O-])c(NC(=O)c2ccccc2)sn1CC , P388 leukemia ip, CD2F1 mice, survival T/C data, T/C value: 97 % of control

Entry CC1(C)N=NC2(Br)C3CCC(C3)C12 (centres undefined) , P388 leukemia ip, CD2F1 mice, survival T/C data, T/C value: 102 % of control

Entry BOc1ccc(C)cc1CN(C)Cc1ccccc1 , P388 leukemia ip, CD2F1 mice, survival T/C data, T/C value: 103 % of control

====

- Tested on: P388 leukemia ip, CD2F1 mice, survival T/C
- test description: NCI In Vivo Anticancer Drug Screen. Data for tumor model P388 Leukemia (intraperitoneal) in CD2F1 (CDF1) mice
- run parameters: endpoint: median survival time; dose: 100.0 mg/kg/injection; schedule: Q01DX005 (ip); vehicle: saline; higher = longer survival
Inconclusive results and toxic doses are left out. Square brackets hold non-standard residues; d marks the D form. Peptide text beside a SMILES is read from it. * marks the point of attachment. ξ: configuration not given here. Boc = CC(C)(C)OC(=O)*; ξT = CC(O)C(N)C(=O)O
measured parameter: T/C

Reference set, count: 10
compound: CN(C)CCC1CC(O)CCC1(C)O (stereo not given)
measured parameter: T/C
reported measurement: 100 % of control

compound: CN(C)CCCNC(=O)c1nn(-c2ccccc2)c2c1N(C)S(=O)(=O)c1ccccc1-2
measured parameter: T/C
reported measurement: 99 % of control

compound: c1ccc(CON(CCc2ccccn2)CCc2ccccn2)cc1
measured parameter: T/C
reported measurement: 98 % of control

compound: CCOC(C)(OCC)N(C)C
measured parameter: T/C
reported measurement: 108 % of control

compound: CC(O)C(N)C(=O)NCC(=O)NCC(=O)O (stereo not drawn) (H-[ξT]-Gly-Gly-OH)
measured parameter: T/C
reported measurement: 101 % of control

compound: O=C(O)COc1cccc2c(=O)cc(-c3ccccc3)oc12
measured parameter: T/C
reported measurement: 101 % of control

compound: Cc1c(O)c(=O)ccn1C1OC(CO)C(O)C1O (stereo not given)
measured parameter: T/C
reported measurement: 99 % of control

compound: CC(C)(C)OC(=O)NCC(=O)NCC(=O)O (Boc-Gly-Gly-OH)
measured parameter: T/C
reported measurement: 102 % of control

compound: O=C1C=C(N2CCN(CCO)CC2)C(=O)c2c(N3CCN(CCO)CC3)cc(N3CCN(CCO)CC3)nc21
measured parameter: T/C
reported measurement: 93 % of control

compound: CC(=O)N1C2C3CCC(C)(OC3(C)C)C21 (stereo not given)
measured parameter: T/C
reported measurement: 102 % of control

The measured T/C associated with NC(=O)c1n[nH][nH]c1=O reads 105 % of control

The measured T/C associated with O=C(O)CCSSCCCCS(=O)O reads 114 % of control

The measured T/C associated with c1ccc(CN2COC3CCCCCCC32)cc1 (stereo not given) reads 112 % of control

The measured T/C associated with OCc1ccc(O)c(O)c1 reads 123 % of control

The measured T/C associated with CN(C)c1ccc2c(=O)cc[nH]c2c1 reads 100 % of control

====

Form field: T/C (one value per entry).
- System: P388 leukemia ip, CD2F1 mice, survival T/C
- test description: NCI In Vivo Anticancer Drug Screen. Data for tumor model P388 Leukemia (intraperitoneal) in CD2F1 (CDF1) mice
- run parameters: endpoint: median survival time; dose: 120.0 mg/kg/injection; schedule: Q01DX005 (ip); vehicle: saline with Tween-80; higher = longer survival
Inconclusive results and toxic doses are left out.

Reference set, count: 4
compound: COc1cc(C(Nc2ncccn2)c2cc3c(cc2O)OCO3)cc(OC)c1OC (configuration not stated)
measured parameter: T/C
reported measurement: 92 % of control
//
compound: O=[N+]([O-])c1ccccc1Sc1cccc(Sc2ccccc2[N+](=O)[O-])n1
measured parameter: T/C
reported measurement: 105 % of control
//
compound: O=C1CC2CCC1(CS(=O)(=O)OCCCCOS(=O)(=O)CC13CCC(CC1=O)C3)C2
measured parameter: T/C
reported measurement: 103 % of control
//
compound: COc1ccc(C2(c3ccc(OC)cc3)ON(C(c3ccccc3)c3ccccc3)C2=O)cc1
measured parameter: T/C
reported measurement: 91 % of control

The measured T/C associated with O=c1[nH]c2nc(SCc3ccccc3)n(Cc3ccccc3)c2c(=O)n1OS(=O)(=O)c1ccccc1 reads 90 % of control

The measured T/C associated with CCOC(=O)C1=C(C)Oc2cc3c(cc2C1c1cc(OC)c(OC)c(OC)c1)OCO3 (configuration not stated) reads 98 % of control

The measured T/C associated with CC(=O)c1oc2cc([N+](=O)[O-])c3ccccc3c2c1C reads 98 % of control

The measured T/C associated with Cc1cccc(N2C(c3ccccc3)c3ccc(C)cc3NS2=O)c1 (configuration not stated) reads 90 % of control

The measured T/C associated with CCOC(=O)c1[nH]cnc1N reads 100 % of control

The measured T/C associated with O=C(Nc1ccc(Cl)cc1)Nc1nnc2nc(CC(=O)c3ccccc3)c(=O)[nH]n12 reads 99 % of control

The measured T/C associated with N#CCCOCNC(=O)NCOCCC#N reads 97 % of control

The measured T/C associated with O=C(Nc1ccccc1)/C(Cl)=C1/Sc2ccccc2NC1=O reads 107 % of control

The measured T/C associated with COc1cccc2cc(-n3nnc4ccccc43)c(=O)oc12 reads 94 % of control

The measured T/C associated with O=C(NCC1CC1)c1ccccc1NC(=O)c1cc2ccccc2oc1=O reads 100 % of control

The measured T/C associated with CCOC(=O)c1c(Cl)c(CC)c(Cl)n2c1nc1ccccc12 reads 93 % of control

The measured T/C associated with CN(C)c1ccc(Cc2c[nH]c3ccccc3c2=O)cc1 reads 92 % of control

The measured T/C associated with CCOc1ccccc1NC(=O)/C(Cl)=C(\Cl)C(=O)O reads 107 % of control

The measured T/C associated with CC1OC(=O)c2cc3ccccc3nc21 (configuration not stated) reads 100 % of control

The measured T/C associated with COC(=O)c1nnn(-c2cccc(C(F)(F)F)c2)c1N reads 90 % of control

The measured T/C associated with c1ccc2c(c1)N=NN1CCCOC21 (configuration not stated) reads 95 % of control

The measured T/C associated with N#C/C(=C\Nc1ccccn1)C(=O)C1CC1 reads 92 % of control

The measured T/C associated with CC(Sc1ncnc2[nH]ncc12)C(N)=O (configuration not stated) reads 97 % of control

The measured T/C associated with CN(C)CC1=Nc2cccc3cccc(c23)N1 reads 106 % of control

The measured T/C associated with CCCCCC(=O)C(C)(c1nc2n(c1O)/C(=N/C(=O)Nc1ccc(Cl)cc1)N=N2)c1nc2n(c1O)/C(=N/C(=O)Nc1ccc(Cl)cc1)N=N2 reads 88 % of control

The measured T/C associated with C=CCSC(C)=O reads 99 % of control

The measured T/C associated with CN(C)c1ccc(/C=N/NC(=O)c2ccccc2N)c(Cl)c1 reads 89 % of control

The measured T/C associated with Nc1ncnc2c1c(-c1ccc(Cl)cc1)cn2-c1ccc(I)cc1 reads 102 % of control

Taken from PubChem BioAssay AID330.
